Target chain: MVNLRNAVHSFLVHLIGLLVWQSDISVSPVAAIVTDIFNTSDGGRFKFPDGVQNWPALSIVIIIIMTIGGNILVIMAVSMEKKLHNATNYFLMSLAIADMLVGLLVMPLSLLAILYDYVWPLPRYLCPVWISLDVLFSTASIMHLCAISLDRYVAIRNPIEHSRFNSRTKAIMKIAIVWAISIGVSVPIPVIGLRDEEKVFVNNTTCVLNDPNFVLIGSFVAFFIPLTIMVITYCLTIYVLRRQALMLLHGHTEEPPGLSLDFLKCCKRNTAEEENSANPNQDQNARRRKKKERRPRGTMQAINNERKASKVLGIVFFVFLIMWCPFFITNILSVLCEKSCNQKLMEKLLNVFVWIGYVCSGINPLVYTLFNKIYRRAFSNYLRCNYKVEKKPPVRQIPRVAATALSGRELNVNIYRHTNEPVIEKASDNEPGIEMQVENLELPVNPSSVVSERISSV
Field: Ki. Provide a value for each of the molecules that follow.
Give bare numbers, in nM.

>>> recorded_number("COc1ccc(N2Cc3c(c4cc(Cl)c(Cl)cc4n3C)C2=O)cc1OCCN1CCCCC1")
6.31
>>> recorded_number("COc1ccc(N2Cc3c(c4cccc(F)c4n3C)C2=O)cc1OCCN1CCC(C)CC1")
2.51
>>> recorded_number("COc1ccc(N2Cc3c(c4ccc(F)cc4n3C)C2=O)cc1OCCN1CCC(C)CC1")
15.8

Give one value of Ki per listed molecule.
1. COc1ccc(N2Cc3c(c4cc(Cl)ccc4n3C)C2=O)cc1OCCN1CCC(C)CC1
2. COc1ccc(N2Cc3c(c4ccc(Cl)cc4n3C)C2=O)cc1OCCN1CCCCC1
3. COc1ccc(N2Cc3c(c4ccccc4n3C)C2=O)cc1OCCN1CCCCC1.Cl

1. 3.16
2. 5.01
3. 6.31
